System: PBMC
Test: Inhibition of TNFalpha release in human PBMC by ELISA assay
Type: functional, cell-based
pIC50: −log10 of the molar value.
Decision: pIC50 >= 10 yields Criterion met, all other cases yield Criterion not met.

Known results for molecules:
molecule="C[C@@H]1C[C@H]2[C@@H]3C[C@H](F)C4=CC(=O)C=C[C@]4(C)[C@@]3(F)[C@@H](O)C[C@]2(C)[C@@]1(OC(=O)c1ccco1)C(=O)SCF [FLUTICASONE FUROATE]" assignedclass="Criterion met"
molecule="CCCC1O[C@@H]2C[C@H]3[C@@H]4CCC5=CC(=O)C=C[C@]5(C)[C@H]4[C@@H](O)C[C@]3(C)[C@]2(C(=O)CO)O1 (stereo not given in full) [BUDESONIDE]" assignedclass="Criterion not met"
molecule=C[C@]12C=CC(=O)C=C1[C@@H](F)C[C@H]1[C@@H]3C[C@H]4O[C@@H](c5ccc(-c6ccccc6)cc5)O[C@@]4(C(=O)CO)[C@@]3(C)C[C@H](O)[C@@]12F assignedclass="Criterion not met"

Threshold query (pIC50 >= 10) on C[C@]12C=CC(=O)C=C1[C@@H](F)C[C@H]1[C@@H]3C[C@H]4O[C@@H](c5ccc(CSc6ccccc6)cc5)O[C@@]4(C(=O)CO)[C@@]3(C)C[C@H](O)[C@@]12F
Criterion not met

Threshold query (pIC50 >= 10) on C[C@]12C=CC(=O)C=C1[C@@H](F)C[C@H]1[C@@H]3C[C@H]4O[C@@H](c5ccc(Cc6ccc(O)cc6)cc5)O[C@@]4(C(=O)CO)[C@@]3(C)C[C@H](O)[C@@]12F
Criterion met

Threshold query (pIC50 >= 10) on C[C@]12C=CC(=O)C=C1[C@@H](F)C[C@H]1[C@@H]3C[C@H]4O[C@@H](c5ccc(CN6CCOCC6)cc5)O[C@@]4(C(=O)CO)[C@@]3(C)C[C@H](O)[C@@]12F
Criterion not met

Threshold query (pIC50 >= 10) on C[C@]12C=CC(=O)C=C1[C@@H](F)C[C@H]1[C@@H]3C[C@H]4O[C@@H](c5ccc(CSc6ccc(O)c(Cl)c6)cc5)O[C@@]4(C(=O)CO)[C@@]3(C)C[C@H](O)[C@@]12F
Criterion met

* * *

Test: Half life in rat
Assay type: ADME, organism-based
Details: in vivo
measuredParameter: half-life

# count of solved cases: 2
compound=CSc1cccc(Sc2ccc([C@@H]3O[C@@H]4C[C@H]5[C@@H]6C[C@H](F)C7=CC(=O)C=C[C@]7(C)[C@@]6(F)[C@@H](O)C[C@]5(C)[C@]4(C(=O)CO)O3)cc2)c1 reading="114 min"
compound="CCC(=O)O[C@]1(C(=O)SCF)[C@H](C)C[C@H]2[C@@H]3C[C@H](F)C4=CC(=O)C=C[C@]4(C)[C@@]3(F)[C@@H](O)C[C@@]21C [FLUTICASONE PROPIONATE]" reading="66 min"

// query half-life value for entry C[C@]12C=CC(=O)C=C1[C@@H](F)C[C@H]1[C@@H]3C[C@H]4O[C@@H](c5ccc(CSc6ccc(O)c(Cl)c6)cc5)O[C@@]4(C(=O)CO)[C@@]3(C)C[C@H](O)[C@@]12F
168 min

* * *

Assay: Metabolic stability of compound in human liver microsomes assessed as intrinsic clearance by equilibrium dialysis
Assay type: ADME, Microsome
measuredParameter: microsomal CLint (µL/min/mg)
Express the result in µL/min/mg but write the number alone.

molecule=C[C@]12C=CC(=O)C=C1[C@@H](F)C[C@H]1[C@@H]3C[C@H]4O[C@@H](c5ccc(CSc6ccc(O)c(Cl)c6)cc5)O[C@@]4(C(=O)CO)[C@@]3(C)C[C@H](O)[C@@]12F readoutunit=µL/min/mg reading=122
molecule="CCC(=O)O[C@]1(C(=O)SCF)[C@H](C)C[C@H]2[C@@H]3C[C@H](F)C4=CC(=O)C=C[C@]4(C)[C@@]3(F)[C@@H](O)C[C@@]21C [FLUTICASONE PROPIONATE]" readoutunit=µL/min/mg reading=51

Next item in the queue.
// query microsomal CLint value for entry CSc1cccc(Sc2ccc([C@@H]3O[C@@H]4C[C@H]5[C@@H]6C[C@H](F)C7=CC(=O)C=C[C@]7(C)[C@@]6(F)[C@@H](O)C[C@]5(C)[C@]4(C(=O)CO)O3)cc2)c1
154
